The reported measurements were obtained from the supplement of paper PMC10065799.

System: Fer (mouse);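 further: 11-residue human phosphosite peptides and single-mutation variants displayed on the E. coli surface, counted by deep sequencing, each peptide's frequency after selection divided by its frequency in the unselected input library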;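 further: frequency after pTyr selection over input frequency; kinase dosed for 20-30% of maximal phosphorylation in three min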
TEST_METHOD_NOTES: phosphorylation enrichment, bacterial display (enrichment ratio); higher = better substrate or ligand; peptides without Tyr show the background
Assign phosphorylation enrichment to each entry below.

Incoming: Entry WRGMPYGGRGD [TGM1_Y312_R307W] : reported phosphorylation enrichment = ?
Outgoing: 0.31

Incoming: Which phosphorylation enrichment reading was recorded for the sequence CRWKRYQCSHD [GDPD5_Y30_R32C] ?
Outgoing: 0.425

Incoming: Any idea what its phosphorylation enrichment is? The sequence is TKDTFYQQPMF [GBA_Y451_K452Q]
Outgoing: 2.41

Incoming: Name the reported phosphorylation enrichment value associated with the sequence `VRSTEYPCAGL`
Outgoing: 0.292

Incoming: // query phosphorylation enrichment value for entry TDISLYPSGGT [TENM4_Y399_V396I]
Outgoing: 0.39

Incoming: Item under review: SSVAGYACLAF [MVD_Y131_A128V_YF] . Reported phosphorylation enrichment?
Outgoing: 0.511

Incoming: Fill in the blank: the reported phosphorylation enrichment of ETAENYLGHTA [HSPA9_Y181] is ____.
Outgoing: 0.443

Incoming: Item under review: DSASAYADEVK [ETNPPL_Y189] . Reported phosphorylation enrichment?
Outgoing: 0.53

Incoming: May I ask what phosphorylation enrichment has been recorded for GRLFAYPDTHR [CAT_Y358] ?
Outgoing: 0.476

Incoming: GET /values?readout=phosphorylation enrichment&item= ATYRGYDSDNP [MMUT_Y146_H143Y]
Outgoing: 0.409

Incoming: Form field: reported phosphorylation enrichment of PLRAFYLIARV [HLCS_Y635_D634Y_YF]
Outgoing: 1.26

Incoming: Which phosphorylation enrichment value belongs to SARFHYLMAEK [LDHB_Y173_R172H] ?
Outgoing: 0.473

Incoming: May I ask what phosphorylation enrichment has been recorded for NNDLCYWVPEL [IARS1_Y434] ?
Outgoing: 0.643

Incoming: // phosphorylation enrichment lookup, key: WKEIEYEVVRD [CPS1_Y634]
Outgoing: 0.583

Incoming: Given GPKSTYISSAA [GOLGA5_Y62] , state its recorded phosphorylation enrichment.
Outgoing: 0.403

Incoming: Requested field: phosphorylation enrichment. Item: YGMSTYITRED [FNDC3B_Y180]
Outgoing: 0.745

Incoming: Recorded phosphorylation enrichment of LMIKEYLTKEL [BAG3_Y457_E455K] , please.
Outgoing: 0.491

Incoming: Returns the measured phosphorylation enrichment for the input sequence. Input: FLAVGYHKLHI [IDS_Y225_P228L]
Outgoing: 0.432

Incoming: Which phosphorylation enrichment value belongs to LPKVSYVKAID [GLRA1_Y307] ?
Outgoing: 0.34

Incoming: GET /values?readout=phosphorylation enrichment&item= TNYRLYLRSLE [MTM1_Y71]
Outgoing: 0.524

Incoming: // query phosphorylation enrichment value for entry KLQKFYRKNPD [EHHADH_Y683_Q685K_YF]
Outgoing: 0.302

Incoming: Value lookup for phosphorylation enrichment; key = NLMPAYYKCIQ [CYP21A2_Y190]
Outgoing: 0.626
